Test system: Wild type
Protocol details: S. aureus survival, RN4220 and DeltatarO strains – OD600, teichoic acid synthesis inhibitors, primary screen (AID 463173)
Experimental setup: S. aureus RN4220 wild type/DeltatarO growth, OD600, 18 h, hits give low values, screened at 18.75 µg/mL (by protocol)
In all, about 52,000 compounds went through this assay and about 1,700 (3.3%) were called active. The sample as a whole holds a higher share of actives than the screen did.
Measured metric: survival (%)
Number in %, nothing else.

Some compounds with recorded survival:
{"columns": ["Compound", "Numeric readout"],
 "data": [
  ["CC(C)OC(=O)CSc1nnc(-c2ccc(O)cc2)n1-c1ccccc1", 116],
  ["COc1ccc(Cl)cc1NC(=O)C(C)N1Cc2ccccc2C1=O (stereo not given)", 85],
  ["COc1ccc(OC)c(CNCc2c(C(=O)O)n(Cc3ccccc3)c3cc(OC)ccc23)c1", 84],
  ["O=C(CN(C(=O)c1csnn1)c1ccccc1)NCc1ccc2c(c1)OCO2", 114],
  ["COc1ccc(-c2ccnc3c(-c4ccc(F)cc4)c(C)nn23)cc1OC", 79],
  ["Cc1ccc(Cc2c(C)nc3nc(SCC(=O)NCCC(C)C)nn3c2C)cc1", 64]
]}

For the compound shown here, CNC(=O)N(O)C1N(c2ccccc2)C(=S)SC1(C)C (stereo not given) , give the reported survival.
109

For the compound shown here, `CCOc1ccc(-c2c(C)nn3c(C)c(C(=O)NCCN(C)C)cnc23)cc1OCC` , give the reported survival.
87

For the compound shown here, `Cc1c(Cl)cccc1NC(=O)CCS(=O)(=O)c1ccc2c(c1)CC(=O)N2C` , give the reported survival.
85

For the compound shown here, O=C(CCc1ccccc1)NC1CC(=O)N(c2cccc(F)c2)C1 (stereo not given) , give the reported survival.
81

* * *

Test system: Wild type
Protocol details: S. aureus survival, RN4220 and DeltatarO strains – OD600, teichoic acid synthesis inhibitors, primary screen (AID 463173)
Experimental setup: S. aureus RN4220 wild type/DeltatarO growth, OD600, 18 h, hits give low values, screened at 18.75 µg/mL (by protocol)
In all, about 52,000 compounds went through this assay and about 1,700 (3.3%) were called active. The entries come from a sample that favours actives as a whole.
Measured metric: survival (%)
Number in %, nothing else.

{"columns": ["Molecule", "survival (%)"],
 "data": [
  ["COc1ccccc1CNC(=O)CCc1c(C)c2cc3c(C)c(C)oc3cc2oc1=O", 114]
]}

For the molecule shown here, `O=C(Nc1ccc(F)cc1)Nc1ccc2snnc2c1` , give the reported survival.
45

For the molecule shown here, `O=C(Nc1cccc(C(F)(F)F)c1)c1cccs1` , give the reported survival.
116

* * *

Tested on: Wild type
Protocol details: S. aureus survival, RN4220 and DeltatarO strains – OD600, teichoic acid synthesis inhibitors, primary screen (AID 463173)
Experimental setup: S. aureus RN4220 wild type/DeltatarO growth, OD600, 18 h, hits give low values, screened at 18.75 µg/mL (by protocol)
Hit rate of the full screen: of about 52,000 compounds, about 1,700 (3.3%) were called active. This excerpt belongs to a sample that is enriched for actives.
Measured metric: survival (%)
Number in %, nothing else.

{"columns": ["Compound", "Assay system", "survival (%)"],
 "data": [
  ["CCOC(=O)Cc1ccc(NC(=O)NCc2cccn2Cc2ccccc2)cc1", "Wild type", -6],
  ["CSc1ccc(-c2nc3ncccn3c2Nc2ccc(C)c(C)c2)cc1", "Wild type", 60]
]}

For the compound shown here, `CCCN(C(=O)c1nn(-c2ccc(OC)c(Cl)c2)c(=O)c2c1c1ccccc1n2C)c1ccccc1F` , give the reported survival.
74

For the compound shown here, `CN(C)CCN(Cc1ccco1)C(=O)c1cc2c(s1)-c1ccccc1OC2` , give the reported survival.
70

For the compound shown here, `O=C(Cn1c(=O)nc(-c2ccccc2)c2ccccc21)NCCCc1ccccc1` , give the reported survival.
60

For the compound shown here, `COc1cccc(-c2cc(C(=O)NCc3ccccc3)no2)c1` , give the reported survival.
85

For the compound shown here, `O=C(Nc1cccnc1Cl)c1cc(-c2ccc(Cl)cc2)on1` , give the reported survival.
83

For the compound shown here, `CCN1CCN(CCCNC(=O)c2cc3c(s2)-c2ccccc2OC3)CC1` , give the reported survival.
84

For the compound shown here, `COCCCN(Cc1ccco1)C(=O)c1cc2c(s1)-c1ccccc1OC2` , give the reported survival.
12

For the compound shown here, `CC(C)OCCCN(Cc1ccco1)C(=O)c1cc2c(s1)-c1ccccc1OC2` , give the reported survival.
9

For the compound shown here, Cc1ccc(N2C(=O)CSC23C(=O)N(CC(=O)Nc2ccc(C(C)C)cc2)c2ccccc23)cc1C (configuration not stated) , give the reported survival.
80

* * *

Tested on: Wild type
Protocol details: S. aureus survival, RN4220 and DeltatarO strains – OD600, teichoic acid synthesis inhibitors, primary screen (AID 463173)
Experimental setup: S. aureus RN4220 wild type/DeltatarO growth, OD600, 18 h, hits give low values, screened at 18.75 µg/mL (by protocol)
About 1,700 (3.3%) of roughly 52,000 compounds were called active. The list comes from a sample in which actives are over-represented; it also holds close analogues and randomly drawn compounds.
Measured metric: survival (%)
Number in %, nothing else.

{"columns": ["Compound", "Numeric readout"],
 "data": [
  ["COc1cc(NS(=O)(=O)c2cc(Br)cc3c2N(C(C)=O)C(C)C3)cc(OC)c1 (stereo not given)", -3],
  ["CCCOc1ccc(CNC(=O)c2ccc(-n3c(C)cc4c3CCC(C)C4)cc2)cc1 (stereo not given)", 113],
  ["CS(=O)(=O)N(CC(=O)N1CCCC1)c1cccc(Cl)c1Cl", 97],
  ["CCn1c(C(=O)NCc2ccccc2)cc2sc(Cl)cc21", 2],
  ["COc1ccc(CNS(=O)(=O)c2cc(Br)cc3c2N(C(C)=O)C(C)C3)cc1 (stereo not given)", 138],
  ["CCN(CCCNC(=O)CN1N=C(c2ccc(OC)cc2)CCC1=O)c1cccc(C)c1", 124],
  ["COc1ccc2[nH]cc(CCN=C(NC(=O)c3ccccc3C)Nc3nc(C)cc(C)n3)c2c1", 41],
  ["O=C(CC1N=C2c3ccccc3N=C(SCC(=O)Nc3cccc(Cl)c3)N2C1=O)NCc1cccs1 (stereo not given)", 82],
  ["CCn1c(C(=O)NCc2ccc(OC)cc2)cc2sc(Cl)cc21", 37]
]}

Request - read-out survival | tested on Wild type | compound COc1ccc(C2=NN(C(C)=O)C(c3cn(-c4ccccc4)nc3-c3cccs3)C2)cc1 (stereo not given)
127

* * *

Tested on: Wild type
Protocol details: S. aureus survival, RN4220 and DeltatarO strains – OD600, teichoic acid synthesis inhibitors, primary screen (AID 463173)
Experimental setup: S. aureus RN4220 wild type/DeltatarO growth, OD600, 18 h, screened at 18.75 µg/mL (by protocol)
Out of some 52,000 compounds screened, about 1,700 (3.3%) were called active. No stated cut-off is given here; in the data, active means survival mostly below about 52% (no sharp cut-off); inactive means mostly above about 56%. This excerpt belongs to a sample that is enriched for actives.
Write down the outcome that applies. Available outcomes: active, inactive

Example entries and their recorded answers appear below.
{"columns": ["Molecule", "Class assignment"],
 "data": [
  ["COc1ccccc1CNC(=O)c1cnc2sc(N3CCOCC3)nn2c1=O", "inactive"],
  ["CCc1ccccc1NC(=O)CCn1nc(C)c2c(C)n(-c3ccccc3)nc2c1=O", "inactive"]
]}

Call for entry NC(=O)C1CCCN1S(=O)(=O)c1ccc(F)cc1 (stereo unspecified) :
inactive

Call for entry `COc1ccc(-c2nnc(SCC(=O)NCCC(C)C)nc2-c2ccc(OC)c(OC)c2)cc1OC` :
inactive

Call for entry `O=C(CN(c1ccc(Cl)c(C(F)(F)F)c1)S(=O)(=O)c1ccccc1)Nc1cccnc1` :
inactive

Call for entry `Cc1ccc(NC(=O)c2c(C)nc3sc(C(=O)Nc4ccc(F)cc4)c(N)c3c2-c2ccccc2Cl)c(C)c1` :
inactive

Call for entry `Cc1cccc(CNC(=O)Cn2ccc3cc(S(=O)(=O)N4CCC(C)CC4)ccc32)c1` :
inactive

Call for entry `Cc1ccc(OCc2nc(C#N)c(NCCc3ccccc3)o2)cc1` :
active

Call for entry `Cc1ccc(CNC(=O)C2CCN(S(=O)(=O)N3CCC(C)CC3)CC2)cc1` :
inactive

* * *

Measured survival, listed per entry.
Tested on: Wild type
Protocol details: S. aureus survival, RN4220 and DeltatarO strains – OD600, teichoic acid synthesis inhibitors, primary screen (AID 463173)
Experimental setup: S. aureus RN4220 wild type/DeltatarO growth, OD600, 18 h, hits give low values, screened at 18.75 µg/mL (by protocol)
In all, about 52,000 compounds went through this assay and about 1,700 (3.3%) were called active. The sample as a whole holds a higher share of actives than the screen did.
Number in %, nothing else.

{"columns": ["Compound", "survival (%)"],
 "data": [
  ["CCCn1c2ccccc2c2cnn(CC(=O)NCCCN3CCCCC3)c(=O)c21", 78],
  ["COc1ccc(NC(=O)CCS(=O)(=O)c2nc(-c3cccs3)cc(C(F)(F)F)n2)cc1OC", 100],
  ["COc1ccc(-c2cc(C(F)(F)F)nc(NCc3ccccc3)n2)cc1OC", 66],
  ["CCCn1c2ccccc2c2cnn(CC(=O)NCCCOC(C)C)c(=O)c21", -6],
  ["Cc1ccc2c(c1)c1c3n2CCN(C(=O)CN2CCN(C(=O)c4ccco4)CC2)C3CCC1 (configuration not stated)", 126]
]}

For the compound shown here, `CCCn1c2ccccc2c2cnn(CC(=O)NCCc3ccc(OCC)c(OCC)c3)c(=O)c21` , give the reported survival.
76

For the compound shown here, `Nc1nc2cc3c(cc2s1)OCCO3` , give the reported survival.
113

For the compound shown here, `COc1ccc(-c2cc(C(F)(F)F)nc(NCCc3ccccc3)n2)cc1OC` , give the reported survival.
81

For the compound shown here, `CCOC(=O)c1ccccc1NC(=O)NCc1cccn1Cc1ccc(F)cc1` , give the reported survival.
84

For the compound shown here, `COc1cccc(-c2cc(C(F)(F)F)nc(NCc3ccc(F)cc3)n2)c1` , give the reported survival.
0
